# SUBJECT_OF_TEST: Adrenergic receptor alpha-1 (Rattus norvegicus) (UniProt P15823+P23944+P43140)
# EXPERIMENT_NOTES: Displacement of [3H]prazosin from Alpha-1 adrenergic receptor of rat cortical membrane at 10e-7 M
just bin them by inhibition: label 0: < 8%; label 1: ≥ 8% and < 30%; label 2: ≥ 30%

Below are worked cases with known answers.
COMPOUND	SUBJECT_OF_TEST	CLASS_LABEL
CC1CN(CCCn2nc3ccccn3c2=O)CCN1c1cccc(Cl)c1 (configuration not stated)	Adrenergic receptor alpha-1 (Rattus norvegicus) (UniProt P15823+P23944+P43140)	label 1
CC1CN(c2cccc(Cl)c2)CCN1CCCn1nc2ccccn2c1=O (configuration not stated)	Adrenergic receptor alpha-1 (Rattus norvegicus) (UniProt P15823+P23944+P43140)	label 2
CN(CCCn1nc2ccccn2c1=O)CCNc1cccc(Cl)c1	Adrenergic receptor alpha-1 (Rattus norvegicus) (UniProt P15823+P23944+P43140)	label 1
CC(CN1CCN(c2cccc(Cl)c2)C(C)C1)Cn1nc2ccccn2c1=O (configuration not stated)	Adrenergic receptor alpha-1 (Rattus norvegicus) (UniProt P15823+P23944+P43140)	label 0
CN(CCNCCCn1nc2ccccn2c1=O)c1cccc(Cl)c1	Adrenergic receptor alpha-1 (Rattus norvegicus) (UniProt P15823+P23944+P43140)	label 1
O=C1CN(CCCn2nc3ccccn3c2=O)CCN1c1cccc(Cl)c1	Adrenergic receptor alpha-1 (Rattus norvegicus) (UniProt P15823+P23944+P43140)	label 0

Enquiry: Hi there! Could you help me figure out the category for CC1CN(CCCn2nc3ccccn3c2=O)C(C)(C)CN1c1cccc(Cl)c1 (configuration not stated) please?
Return: label 1

Enquiry: Similarly, CCC1CN(c2cccc(Cl)c2)CCN1CCCn1nc2ccccn2c1=O (configuration not stated) ?
Return: label 2

Enquiry: And for CC1C(=O)N(c2cccc(Cl)c2)CCN1CCCn1nc2ccccn2c1=O (configuration not stated) ?
Return: label 0

Enquiry: Entry to check: CC(CN1CCN(c2cccc(Cl)c2)CC1)Cn1nc2ccccn2c1=O (configuration not stated)
Return: label 1

Enquiry: Now consider CC(CCn1nc2ccccn2c1=O)N1CCN(c2cccc(Cl)c2)CC1 (configuration not stated) .
Return: label 1

###

Recorded IC50 values for a group of compounds are listed next.
# SUBJECT_OF_TEST: 5-hydroxytryptamine receptor 2A (Rattus norvegicus, UniProt P14842)
# Sequence (P14842 whole entry): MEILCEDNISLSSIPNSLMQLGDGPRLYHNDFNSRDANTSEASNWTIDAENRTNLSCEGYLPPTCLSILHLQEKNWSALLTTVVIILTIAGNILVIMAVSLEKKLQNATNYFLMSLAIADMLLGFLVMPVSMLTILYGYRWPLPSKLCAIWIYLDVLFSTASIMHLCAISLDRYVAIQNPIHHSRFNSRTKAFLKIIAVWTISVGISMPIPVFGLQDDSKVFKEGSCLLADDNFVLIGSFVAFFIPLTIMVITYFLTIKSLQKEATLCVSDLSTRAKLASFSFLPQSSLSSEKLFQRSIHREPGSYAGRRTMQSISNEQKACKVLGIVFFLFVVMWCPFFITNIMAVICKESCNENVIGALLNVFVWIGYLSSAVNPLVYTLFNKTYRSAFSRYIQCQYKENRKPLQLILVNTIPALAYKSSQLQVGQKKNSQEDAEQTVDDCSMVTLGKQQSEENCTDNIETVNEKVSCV
# EXPERIMENT_NOTES: Compound was tested for the inhibition of [3H]ketanserin binding to 5-hydroxytryptamine 2A receptor
Express your answer in nM, writing the number without its unit.

Some compounds with known IC50 results, for comparison:
COMPOUND	ASSAY_VALUE
CC(CN1CCN(c2cccc(Cl)c2)CC1)Cn1nc2ccccn2c1=O (centres undefined)	94
CC(CCn1nc2ccccn2c1=O)N1CCN(c2cccc(Cl)c2)CC1 (centres undefined)	17
CC1CN(c2cccc(Cl)c2)CCN1CCCn1nc2ccccn2c1=O (centres undefined)	31

Enquiry: Would you mind telling me what IC50 value was observed for CCC1CN(c2cccc(Cl)c2)CCN1CCCn1nc2ccccn2c1=O (centres undefined) ?
Return: 169

###

# SUBJECT_OF_TEST: 5-hydroxytryptamine receptor 2A (Rattus norvegicus)
# EXPERIMENT_NOTES: Displacement of [3H]ketanserin from rat cortical membrane 5-hydroxytryptamine 2A receptor at 10e-7 M
Values of inhibition greater than or equal to 40% map to class 1; values below map to class 0.

Past entries and their recorded results:
COMPOUND	CLASS_LABEL
O=c1n(CCCN2CCN(c3cccc(Cl)c3)CC2)nc2ccccn12	class 1
CCC1CN(c2cccc(Cl)c2)CCN1CCCn1nc2ccccn2c1=O (stereo unspecified)	class 1
O=c1n(CCCNCCNc2cccc(Cl)c2)nc2ccccn12	class 0
CC(CN1CCN(c2cccc(Cl)c2)C(C)C1)Cn1nc2ccccn2c1=O (stereo unspecified)	class 0

Turning to the following compound.
Enquiry: Check the entry CC(CCn1nc2ccccn2c1=O)N1CCN(c2cccc(Cl)c2)CC1 (stereo unspecified) : does inhibition equal or exceed 40%?
Return: class 1
